Where do these numbers come from? They come from PubChem BioAssay.

# reported log fold change Tl+ flux; entries follow
system: F380Y; assay: modulators of BK channel variants, profiling panel, selectivity assay, cell-based, U2OS BacMam, thallium flux, beta subunits (AID 1259406); details: at 30 µM;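 further: initial slope of Thallos dye fluorescence rise after thallium is added; log ratio against the mean of 0.3% DMSO vehicle wells on the same plate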
EXPERIMENTAL_READOUT: log fold change Tl+ flux

| MOLECULE | EXPERIMENTAL_READOUT | RESULT_VALUE |
| --- | --- | --- |
| Cc1cc(C)c(C(=O)O)c(CC(C)(C)C(=O)O)c1 | log fold change Tl+ flux | 0.000395 |
| COC(=O)C(O)(c1ccc(NC(=O)c2ccc(Cl)c(Cl)c2)cc1)C(F)(F)F (stereo unspecified) | log fold change Tl+ flux | -0.0296 |
| Cc1c(C(=O)Nc2ccc(N3CCOCC3)c(Cl)c2)cnn1-c1ccc(F)cc1 | log fold change Tl+ flux | -0.0177 |
| CS(=O)(=O)Nc1ccc(N2CCN(c3ccc(C(F)(F)F)cn3)CC2)nc1 | log fold change Tl+ flux | 0.0216 |
| O=C(NCc1ccc2c(c1)OCO2)C1CCN(C(=O)OCc2ccccc2)CC1 | log fold change Tl+ flux | 0.035 |
| COC(=O)C=C1NCC(O)CNC1=O (stereo unspecified) | log fold change Tl+ flux | -0.00633 |
| Nc1nc(Cl)nc2c1ncn2[C@@H]1O[C@H](CO)[C@@H](O)[C@H]1O | log fold change Tl+ flux | -0.00984 |
| O=C(NNC(=O)c1ccc2nonc2c1)c1cccc(C(F)(F)F)c1 | log fold change Tl+ flux | 0.0115 |
| CN1[C@@H]2CCC[C@H]1CC(NC(=O)c1nn(C)c3ccccc13)C2 (stereo partly specified) | log fold change Tl+ flux | 0.0826 |
| CCC(=O)NS(=O)(=O)c1ccc(-c2c(-c3ccccc3)noc2C)cc1 | log fold change Tl+ flux | 0.0552 |
| O=S(=O)(NCc1ccc2c(c1)CCO2)c1cccs1 | log fold change Tl+ flux | -0.0321 |
| Cc1onc(-c2ccccc2)c1N1C(=O)CCN(C(C)C)C1=O | log fold change Tl+ flux | -0.0312 |
| O=C(Cn1ccc(C(F)(F)F)n1)c1ccc(Cl)cc1 | log fold change Tl+ flux | 0.0102 |
| CC(C)n1c(SCC(=O)c2ccccc2)nc2cc(Cl)ccc21 | log fold change Tl+ flux | -0.0377 |
| CO[C@H]1O[C@@H]2O[C@@]3(C)CC[C@H]4[C@H](C)CC[C@@H]([C@H]1C)[C@@]24OO3 | log fold change Tl+ flux | -0.0298 |
| COC(=O)Nc1nc2ccc(C(=O)c3ccc(F)cc3)cc2[nH]1 | log fold change Tl+ flux | -0.0412 |
| CC(C)CC(NC(=O)C(COC(C)(C)C)NC(=O)C(Cc1ccc(O)cc1)NC(=O)C(CO)NC(=O)C(Cc1c[nH]c2ccccc12)NC(=O)C(Cc1cnc[nH]1)NC(=O)C1CCC(=O)N1)C(=O)N[C@@H](CCCN=C(N)N)C(=O)N1CCCC1C(=O)NNC(N)=O (stereo partly specified) | log fold change Tl+ flux | -0.0277 |
| ONC=Nc1nonc1-c1cccnc1 | log fold change Tl+ flux | 0.00986 |
| C#CC1(NC(=O)c2ccc(-c3ccc(CC)cc3)cc2)CCCCC1 | log fold change Tl+ flux | 0.0109 |
| Clc1ccc(-c2cnc(-c3ccc(Cl)cc3)o2)cc1 | log fold change Tl+ flux | 0.0159 |
| COC(OC)c1ccc(C#N)c(SC)n1 | log fold change Tl+ flux | 0.0176 |
